molecular target: S1 (truncated S1 subunit); assay: ELISA, coated truncated S1 [cont'd]
MEASUREMENT_LABEL: EC50

1) HbnC2t1p2_D9 (antibody, V domains shown) VH: QVQLVESGGGVVQPGRSLRLSCAASGFTFSSYGMHWVRQAPGKGLEWVAVIWYDGRNKYYVDSVKGRFTISRDNSKNTLYLQISSLRAEDTAVYYCARAARRPVVTDTMAYYMDVWGKGTTVTVSS VL: EIVLTQSPATLSLSPGERATLSCRASLSLSSYLAWYQQKPGQAPRLLIYDASNRATGIPARFSGSGSGTDFTLTISSLEPEDFAVYYCQQRSNWPPTWTFGQGTKAEIKR :: < 1000 µg/mL
2) HbnC3t1p1_G4 (antibody, V domains shown) VH: EVQLVESGGGLVQPGGSLRLSCAASGFTVSSNYMSWVRQAPGKGLEWVSVIYSGGSTFYADSVKGRFTISRDNSKNTLYLQMNSLRAEDTAVYYCARDFGDFFFDYWGQGTLVTVSS VL: EIVLTQSPGTLSLSPGERATLSCRASQSVSSYLAWYQQKPGQAPRLLIYGVSSRATGIPDRFSGSGSGTDFTLTISRLEPEDFAVYYCQQYGSSPRTFGQGTKVEIK :: < 100 µg/mL
3) HbnC3t1p1_F4 (antibody, V domains shown) VH: QVQLVESGGGVVQPGRSLRLSCAATGFTFRRYGMHWVRQAPGKGLEWVAGILFDGSNKYYVDSVKGRFTISRDSSRNTLYLQLNSLRREDTAVYYCAKGGDYEWELLESWGQGTLVTVSS VL: DIQMTQSPSTVSASVGDRVTITCRASQSIDNWLAWYQEKPGKAPKVLIYKASSLESGVPSRFSGRGSGTEFTLTISSLQPGDFATYYCQHYHSFPLTFGGGTKVDIK :: < 100 µg/mL
